B1: library; numbered along this chain (parent)
chain: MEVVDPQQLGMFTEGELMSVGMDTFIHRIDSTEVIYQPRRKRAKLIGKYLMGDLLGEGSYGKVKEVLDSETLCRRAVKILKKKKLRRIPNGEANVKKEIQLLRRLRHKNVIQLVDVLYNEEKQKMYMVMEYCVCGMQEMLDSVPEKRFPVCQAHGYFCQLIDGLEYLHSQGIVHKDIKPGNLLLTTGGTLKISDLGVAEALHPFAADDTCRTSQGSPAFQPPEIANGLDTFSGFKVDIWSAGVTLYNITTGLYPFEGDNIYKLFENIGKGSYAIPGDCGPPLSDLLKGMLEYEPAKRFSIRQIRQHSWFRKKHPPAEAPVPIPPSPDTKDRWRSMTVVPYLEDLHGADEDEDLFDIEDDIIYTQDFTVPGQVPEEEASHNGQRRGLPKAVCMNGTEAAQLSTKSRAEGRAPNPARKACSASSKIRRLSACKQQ

variants of: B1; assay: STK11 functional score (HeLa growth suppression), rescaled enrichment; synonymous median = 1, nonsense median = 0 (normalised score); conditions: with HeLa; variant type: missense
Parameter STK11 functional score: see the listing below.
Note: the reply should be a number with no unit written.

Lookup result for `K108P` ; measured STK11 functional score: 1.35

Record `S240D` , field STK11 functional score: 0.841

Form field STK11 functional score, entry `K82L` : 1.49
